Test system: CAKI-1 renal
Assay: NCI tumour cell line growth inhibition, 48 h; in the data active means GI50 below about 0.43 µM; inactive means the rest
Result category, one only: yes (1) (active), no (0) (inactive)

compound	assigned.category
COc1ccc(C(=NN=C(N)N)c2ccc(OC)cc2)cc1	no (0)
COCCOC1=CC(=O)c2c(O)ccc(O)c2C1=O	no (0)
O=C(C=P(c1ccccc1)(c1ccccc1)c1ccccc1)CCl	no (0)
NC(=S)N/N=C1\c2ccccc2-c2c(F)c(F)c(F)c(F)c21	no (0)
O=C(O)c1cc(=O)cc(C(=O)O)o1	no (0)
COc1cc(-c2nc3sc(C)cn3c2/C=C2\C(=O)Nc3ccccc32)c(Br)c(OC)c1OC	no (0)
O=C1CC(c2ccccc2)Cc2nc3ccc(Br)cc3cc21 (stereo unspecified)	no (0)
O=C1C(=C([O-])c2ccccc2)C(=O)c2ccccc21.O=C1C(=C([O-])c2ccccc2)C(=O)c2ccccc21.[Mn+2]	no (0)
COC1=C(C)C(=O)c2c(c(CCCl)c3n2CCC3OC(C)=O)C1=O (stereo unspecified)	yes (1)
C#CC(=O)Nc1cccc2c1cc(C)n2-c1nc2c(c(NCc3ccccc3)n1)CCCC2	no (0)

Could you kindly confirm the outcome this assay logged for CC(C)(c1ccccc1)c1cc(O)c(C(C)(C)c2ccccc2)cc1O ? no (0)

Same lookup for CN(C)CC(=O)Nc1ccc2ncnc(Nc3ccc(Oc4cccc(C(F)(F)F)c4)c(Cl)c3)c2c1 , please. no (0)

Data provenance is PubChem BioAssay (NCI).
